Ref: the NIST ThermoML archive (doi:10.1021/je900550v)

# Applied conditions: 286.9 K; 101.33 kPa; Liquid; Vibrating tube method
Endpoint name: mass density (kg/m3)
Please give a number only; it is taken to be in kg/m3.

// worked examples, mass density included
CCCC(=O)[O-].C[NH2+]CCO [N-methyl-2-hydroxyethylammonium butanoate] :: 1046.85
CCC(=O)[O-].C[NH2+]CCO [2-hydroxy-N-methylethanaminium propionate] :: 1078.6
CC(C)C(=O)[O-].C[NH2+]CCO [2-hydroxy-N-methylethanaminium isobutyrate] :: 1050.49
CC(=O)[O-].C[NH2+]CCO [N-methyl-2-hydroxyethylammonium acetate] :: 1107.56
CCCCC(=O)[O-].C[NH2+]CCO [2-hydroxy-N-methylethanaminium pentanoate] :: 1023.83

// next entry
Inquiry: Entry C[NH2+]CCO.O=C[O-] [2-hydroxy-N-methylethanaminium formate] : reported mass density = ?
Reply text: 1134.53

* * *

# Applied conditions: 293.15 K; 101.33 kPa; Liquid; Vibrating tube method
Endpoint name: mass density (kg/m3)
Give the value in kg/m3 but do not write kg/m3 after it.

Worked cases, answers included:
C[NH2+]CCO.O=C[O-] [2-hydroxy-N-methylethanaminium formate] :: 1131.04
CC(=O)[O-].C[NH2+]CCO [N-methyl-2-hydroxyethylammonium acetate] :: 1103.76
CCC(=O)[O-].C[NH2+]CCO [2-hydroxy-N-methylethanaminium propionate] :: 1074.5
CCCCC(=O)[O-].C[NH2+]CCO [2-hydroxy-N-methylethanaminium pentanoate] :: 1019.61

Inquiry: Quick one: mass density of CCCC(=O)[O-].C[NH2+]CCO [N-methyl-2-hydroxyethylammonium butanoate] ?
Reply text: 1042.64

Inquiry: Value lookup for mass density; key = CC(C)C(=O)[O-].C[NH2+]CCO [2-hydroxy-N-methylethanaminium isobutyrate]
Reply text: 1046.53

* * *

# Applied conditions: 326.41 K; 101.33 kPa; Liquid; Pulse-echo method
Endpoint name: speed of sound (m/s)
Give just the number in m/s; leave the unit off.

Below are worked cases with known answers.
C[NH2+]CCO.O=C[O-] [2-hydroxy-N-methylethanaminium formate] :: 1760.4
CC(C)C(=O)[O-].C[NH2+]CCO [2-hydroxy-N-methylethanaminium isobutyrate] :: 1531.4
CCCCC(=O)[O-].C[NH2+]CCO [2-hydroxy-N-methylethanaminium pentanoate] :: 1461.6
CCCC(=O)[O-].C[NH2+]CCO [N-methyl-2-hydroxyethylammonium butanoate] :: 1526.1

Inquiry: Quick one: speed of sound for CCC(=O)[O-].C[NH2+]CCO [2-hydroxy-N-methylethanaminium propionate] ?
Reply text: 1606.2

* * *

# Applied conditions: 299.15 K; 101.33 kPa; Liquid; Vibrating tube method
Numbers after ± are expanded uncertainties.
Endpoint name: mass density
The reply should consist of the numeric value with the unit placed after it.

Field: example entries. Status: answers known.
CC(=O)[O-].C[NH2+]CCO [N-methyl-2-hydroxyethylammonium acetate] :: 1100.23 ± 2.2 kg/m3
CCCC(=O)[O-].C[NH2+]CCO [N-methyl-2-hydroxyethylammonium butanoate] :: 1038.56 ± 2.2 kg/m3

Inquiry: Please give the measured mass density for this compound: CCC(=O)[O-].C[NH2+]CCO [2-hydroxy-N-methylethanaminium propionate]
Reply text: 1070.63 ± 2.2 kg/m3

Inquiry: Need mass density of CC(C)C(=O)[O-].C[NH2+]CCO [2-hydroxy-N-methylethanaminium isobutyrate] , thanks.
Reply text: 1042.73 ± 2.2 kg/m3

Inquiry: Which measured mass density value corresponds to CCCCC(=O)[O-].C[NH2+]CCO [2-hydroxy-N-methylethanaminium pentanoate] ?
Reply text: 1015.52 ± 2.2 kg/m3

Inquiry: What value of measured mass density is listed for C[NH2+]CCO.O=C[O-] [2-hydroxy-N-methylethanaminium formate] ?
Reply text: 1127.69 ± 2.2 kg/m3
